- Measured target: T1, hIL-4Rα on cells (human, UniProt P24394 26-825)
- T1 sequence: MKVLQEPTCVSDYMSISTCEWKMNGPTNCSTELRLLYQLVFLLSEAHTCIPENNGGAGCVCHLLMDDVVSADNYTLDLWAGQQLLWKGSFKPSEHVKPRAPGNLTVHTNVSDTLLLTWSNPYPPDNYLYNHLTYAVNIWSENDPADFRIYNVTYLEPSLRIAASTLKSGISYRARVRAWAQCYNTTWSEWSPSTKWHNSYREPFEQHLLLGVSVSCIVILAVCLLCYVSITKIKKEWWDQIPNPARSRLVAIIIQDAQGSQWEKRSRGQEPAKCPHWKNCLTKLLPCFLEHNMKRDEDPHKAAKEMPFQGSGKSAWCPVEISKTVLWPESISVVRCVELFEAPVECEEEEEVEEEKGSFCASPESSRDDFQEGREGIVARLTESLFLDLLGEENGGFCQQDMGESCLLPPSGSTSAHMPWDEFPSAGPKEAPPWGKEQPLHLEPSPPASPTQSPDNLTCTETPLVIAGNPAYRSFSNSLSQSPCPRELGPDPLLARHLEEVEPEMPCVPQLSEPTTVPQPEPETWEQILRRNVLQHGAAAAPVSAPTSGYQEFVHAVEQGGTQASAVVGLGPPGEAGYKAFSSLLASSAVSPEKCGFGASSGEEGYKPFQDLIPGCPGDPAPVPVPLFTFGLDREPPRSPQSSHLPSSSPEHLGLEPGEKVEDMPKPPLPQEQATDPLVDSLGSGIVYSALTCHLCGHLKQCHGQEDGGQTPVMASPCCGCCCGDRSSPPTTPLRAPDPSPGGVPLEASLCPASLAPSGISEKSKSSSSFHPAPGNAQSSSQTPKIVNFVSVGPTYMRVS
- Assay details: cell-based or functional assay
Measurement kind: Inhibition of IL-13 induced TARC IC50 (nM)

{"Binder": "Construct 15 (mAb423) with IgG1 YTE LALA heavy chain constant region (antibody, V domains shown) VH: EVQLVESGGGLEQPGGSLRLSCAGSGFTFRDFAMTWVRQAPGKGLEWVSSISGSGGNIYYADSVKGRFTISRDNSKNTLYLQMNSLRAEDTAVYYCAKDRLSKTIRPRYYGLDVWGQGTTVTVSS VL: DIVMTQSPLSLPVTPGEPASISCTASQSLLYSIGYNYVDWYLQKSGQSPQLLIYLGNKRASGVPDRFSGSGSGTDFTLKISRVEAEDVGFYYCMQSLTSPYTFGQGTKLEIK", "Measurement kind": "Inhibition of IL-13 induced TARC IC50", "Uom": "nM", "Readout number": 0.212}
